Record form. Attribute: TGI. Fill in for each entry.
Test system: HOP-18 NSCLC
assay.text: NCI tumour cell line growth inhibition, 48 h

O=C(O)CCCNS(=O)(=O)c1ccccc1 :: > 100 µM

For every record below, what is its TGI?
1. [N-]=[N+]=NC1C2CC3C4CC5CC3[C@H](C2)C(C5)C41 (stereo partly specified)
2. CC(=O)NNc1nc(C)c(C(=O)/C=C/c2cccc([N+](=O)[O-])c2)s1
3. O=C1C(=Cc2cccs2)C(=O)N(CCc2ccccc2)S(=O)(=O)N1CCc1ccccc1
4. CC1(C)c2ccccc2C(C)(C)C(C(=O)Nc2ccccc2)C1C(=O)O (stereo unspecified)
5. CCOP(=O)(OCC)/C(C#N)=C\c1ccc(OC(C)=O)cc1

Outgoing:
1. > 100 µM
2. > 100 µM
3. > 50 µM
4. > 100 µM
5. > 100 µM

###

System: SF-295 CNS
assay.text: NCI tumour cell line growth inhibition, 48 h
For each of the compounds below, state its TGI.
Answers are plain numbers, in µM.

Field: example entries. Status: answers known.
Cc1cc(Nc2ccc3c(c2)OCO3)c2cc3c(cc2n1)OCO3 :: 8.85
CC(=O)OC1CCC2(C)C(CCC3C4CC=C(C5(C)OCCO5)C4(C)CCC32)C1 (stereo not given) :: 57.2
Cc1cc(O)c(C=O)c(C)c1CCC1(C)C=Cc2cc(O)ccc2O1 (stereo not given) :: 67.6

Incoming: What TGI appears in the records for this compound with SF-295 CNS? O=C(Nc1ccc([As]=[As]c2ccc(NC(=O)c3ccccc3)cc2)cc1)c1ccccc1 (stereo not given)
Outgoing: 3.08

###

Test system: CCRF-CEM leukemia
assay.text: NCI tumour cell line growth inhibition, 48 h; in the data active means GI50 below about 0.43 µM; inactive means the rest
Pick one and only one: active, inactive

Illustrative cases are given below, each with its answer.
CC(=O)OC1CC2C(C)(C)C(=O)C=C[C@]2(C)C2CC[C@]3(C)C(OCC(=O)[C@H]3c3ccoc3)[C@]12C (stereo not given in full) :: inactive
NCCN.O=C([O-])C(=O)[O-].O=C([O-])C(=O)[O-].[Co+3].[K+] :: inactive
C=C1C(=O)O[C@H]2[C@H]1CC/C(COC(=O)CCSSCCC(=O)OC/C1=C/CC[C@@]3(C)O[C@H]3[C@H]3OC(=O)C(=C)[C@@H]3CC1)=C\CC[C@@]1(C)O[C@@H]21 :: active
COc1ccc2nc3cccc([N+](=O)[O-])c3c(NCCNCCO)c2c1 :: active
O=S(=O)(Nc1ccc(Cl)cc1)c1ccc(-c2cnc(C3CC3)o2)cc1 :: inactive
CCCN(CCC)c1ccc(CO)c(Cl)c1 :: inactive
Cc1cc(N(CCNc2ccnc3cc(Cl)ccc23)Cc2cccs2)nc(Cl)n1 :: inactive
Cc1cc(Nc2ccc3c(c2)OCO3)c2cc3c(cc2n1)OCO3 :: inactive
CC(=O)OC1Oc2ccccc2-c2oc(=O)c(-c3ccc(F)cc3)cc21 (stereo not given) :: inactive
OCc1ccc(N(Cc2ccc(F)cc2)CC2CC2)cc1Cl :: inactive

Incoming: Answer briefly: the call reported for `CC(C)OC(=O)c1cc(NS(=O)(=O)c2ccc3ccccc3c2)cc(C(=O)OC(C)C)c1` in this assay.
Outgoing: inactive

###

Test system: NCI/ADR-RES ovarian
assay.text: NCI tumour cell line growth inhibition, 48 h
metric: log10(TGI) (log10 of the value in µM)
Heads up: the numbers are on a log10 scale; they represent TGI in µM.

Solved entries (count: 4):
CCOC(=O)c1cn2c(n1)sc1cc(C)c(C)cc12 :: 1.83
COc1ccc(N2CCN(C(=O)c3ccc(C(F)(F)F)nc3Nc3cc(Cl)ccc3C)CC2)cc1 :: 1.44
CC(O)CCc1ccc(Oc2c3ccccc3nc3occc23)cc1 (configuration not stated) :: 1.16
O=C(Nc1ccc2ncccc2c1)c1cc2c(cc1Cl)Sc1nccn1S2(=O)=O :: 1.68

Incoming: Item `COc1ccc2nc3cccc([N+](=O)[O-])c3c(NCCNCCO)c2c1` has what recorded log10(TGI)?
Outgoing: 0.83
